# TARGET OR SYSTEM: CXCR7 (Homo sapiens (Human), UniProt P25106)
# Sequence (P25106 whole entry): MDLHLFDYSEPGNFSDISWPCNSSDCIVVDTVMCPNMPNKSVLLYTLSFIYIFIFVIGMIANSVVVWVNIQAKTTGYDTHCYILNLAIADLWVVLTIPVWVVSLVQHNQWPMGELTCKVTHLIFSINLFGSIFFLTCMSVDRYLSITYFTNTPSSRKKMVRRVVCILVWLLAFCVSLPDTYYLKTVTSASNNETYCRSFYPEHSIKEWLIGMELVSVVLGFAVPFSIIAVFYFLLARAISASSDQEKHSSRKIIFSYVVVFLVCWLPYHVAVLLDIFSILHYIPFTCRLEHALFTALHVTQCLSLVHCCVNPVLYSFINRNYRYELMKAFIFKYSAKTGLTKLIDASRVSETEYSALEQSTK
# Sequence (P32121 whole entry partner): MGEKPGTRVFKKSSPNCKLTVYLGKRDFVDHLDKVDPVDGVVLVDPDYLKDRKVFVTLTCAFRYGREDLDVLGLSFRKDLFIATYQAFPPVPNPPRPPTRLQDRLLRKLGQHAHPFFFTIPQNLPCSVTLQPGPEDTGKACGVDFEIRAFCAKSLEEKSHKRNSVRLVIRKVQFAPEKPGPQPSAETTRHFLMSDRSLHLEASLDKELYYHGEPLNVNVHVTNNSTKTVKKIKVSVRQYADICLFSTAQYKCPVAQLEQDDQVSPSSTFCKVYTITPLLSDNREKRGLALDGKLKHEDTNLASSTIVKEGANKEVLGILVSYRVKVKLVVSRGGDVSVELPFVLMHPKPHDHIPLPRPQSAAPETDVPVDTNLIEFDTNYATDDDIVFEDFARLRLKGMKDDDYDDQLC
# PROTOCOL DESCRIPTION: PathHunter CHO-K1 CXCR7 b-arrestin assay (agonistic activity)
# MEASUREMENT SETUP: PathHunter CHO-K1 CXCR7 b-arrestin cell line
pEC50 reference
Interpret pEC50 as the negative base-10 log of the concentration measured in mol/L.

MOLECULE	pEC50
Cc1c(F)cccc1C(=O)Nc1cccc(CN2CCC(C(=O)NC3CCCCC3)CC2)c1	7.89
CC(c1cccc(NC(=O)c2cc(Cl)ccn2)c1)N1CCC(C(=O)NC2CCCCC2)CC1 (racemic)	7.29

Would you kindly share the measured pEC50 for Cc1ccc(C)c(C(=O)Nc2cccc(CN3CCC(C(=O)NC4CCCCC4)CC3)c2)c1 ?
8.10

Fill in: pEC50 of CC(C)(C)NC(=O)C1CCN(Cc2cccc(NC(=O)c3cnc4cc(Cl)ccc4c3)c2)CC1 is ___
8.30
